- target.system: type E botulinum toxin light chain (BoNT/E-LC) (Clostridium botulinum)
- Sequence (Q00496 2-422 limits assumed): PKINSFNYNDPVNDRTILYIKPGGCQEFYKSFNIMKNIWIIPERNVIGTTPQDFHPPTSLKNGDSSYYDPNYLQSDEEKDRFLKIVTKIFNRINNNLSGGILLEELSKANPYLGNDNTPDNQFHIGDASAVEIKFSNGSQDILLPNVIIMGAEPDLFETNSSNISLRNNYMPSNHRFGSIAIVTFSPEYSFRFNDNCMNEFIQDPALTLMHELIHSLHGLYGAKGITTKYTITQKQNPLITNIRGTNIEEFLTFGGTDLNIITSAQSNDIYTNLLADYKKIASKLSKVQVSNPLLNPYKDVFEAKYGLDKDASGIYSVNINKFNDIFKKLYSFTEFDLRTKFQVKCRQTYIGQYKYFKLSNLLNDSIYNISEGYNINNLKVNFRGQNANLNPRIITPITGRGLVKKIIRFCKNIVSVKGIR
- assay.summary: biochemical
- assay.setup: read-out: Inhibition rate %
property.measured: inhibition at 100 µg/mL (%)

compound: CCOc1ccc(Cl)cc1NC(=O)CSc1ncccc1C(=O)O [Example 6]
target.system: type E botulinum toxin light chain (BoNT/E-LC) (Clostridium botulinum)
property.measured: inhibition at 100 µg/mL
observed.value: 16.8

compound: COc1ccc(Cl)cc1NCC(=O)Sc1ncccc1C(=O)[O-].[Na+] [Example 1, sodium]
target.system: type E botulinum toxin light chain (BoNT/E-LC) (Clostridium botulinum)
property.measured: inhibition at 100 µg/mL
observed.value: 7.32

compound: COc1ccc(Cl)cc1NC(=O)CSc1cc(C(=O)[O-])ccn1.[K+] [Example 15, potassium]
target.system: type E botulinum toxin light chain (BoNT/E-LC) (Clostridium botulinum)
property.measured: inhibition at 100 µg/mL
observed.value: 16.3

compound: O=C(CSc1ncccc1C(=O)[O-])Nc1ccc(Br)cc1.[K+] [Example 12, potassium]
target.system: type E botulinum toxin light chain (BoNT/E-LC) (Clostridium botulinum)
property.measured: inhibition at 100 µg/mL
observed.value: 12.3

compound: O=C(CSc1ncccc1C(=O)[O-])Nc1ccc(OC(F)(F)F)cc1.[K+] [Example 21, potassium]
target.system: type E botulinum toxin light chain (BoNT/E-LC) (Clostridium botulinum)
property.measured: inhibition at 100 µg/mL
observed.value: 20.3

compound: O=C(CSc1ncccc1C(=O)[O-])Nc1ccccc1Cl.[K+] [Example 8, potassium]
target.system: type E botulinum toxin light chain (BoNT/E-LC) (Clostridium botulinum)
property.measured: inhibition at 100 µg/mL
observed.value: 27.6

compound: COc1cc(Cl)cc(NCC(=O)Sc2ncccc2C(=O)[O-])c1.[Na+] [Example 4, sodium]
target.system: type E botulinum toxin light chain (BoNT/E-LC) (Clostridium botulinum)
property.measured: inhibition at 100 µg/mL
observed.value: 43.2

compound: O=C(CSc1ncccc1C(=O)O)Nc1cccc(OC(F)(F)F)c1 [Example 25, potassium]
target.system: type E botulinum toxin light chain (BoNT/E-LC) (Clostridium botulinum)
property.measured: inhibition at 100 µg/mL
observed.value: 4.3

compound: COc1ccc(OC)c(NC(=O)CSc2ncccc2C(=O)O)c1 [Example 16, potassium]
target.system: type E botulinum toxin light chain (BoNT/E-LC) (Clostridium botulinum)
property.measured: inhibition at 100 µg/mL
observed.value: 5.2

compound: CCOc1ccccc1NC(=O)CSc1ncccc1C(=O)O [Example 5]
target.system: type E botulinum toxin light chain (BoNT/E-LC) (Clostridium botulinum)
property.measured: inhibition at 100 µg/mL
observed.value: 6.8

compound: CCCOc1ccc(Cl)cc1NC(=O)CSc1ncccc1C(=O)O [Example 7]
target.system: type E botulinum toxin light chain (BoNT/E-LC) (Clostridium botulinum)
property.measured: inhibition at 100 µg/mL
observed.value: 14

compound: O=C(CSc1ncccc1C(=O)[O-])Nc1cc(Cl)ccc1OCc1ccccc1.[K+] [Example 23, sodium]
target.system: type E botulinum toxin light chain (BoNT/E-LC) (Clostridium botulinum)
property.measured: inhibition at 100 µg/mL
observed.value: 50.7

compound: O=C(CSc1ncccc1C(=O)[O-])Nc1ccccc1OC(F)(F)F.[K+] [Example 24, potassium]
target.system: type E botulinum toxin light chain (BoNT/E-LC) (Clostridium botulinum)
property.measured: inhibition at 100 µg/mL
observed.value: 5.6

compound: O=C(CSc1ncccc1C(=O)[O-])Nc1cc(F)ccc1Cl.[K+] [Example 18]
target.system: type E botulinum toxin light chain (BoNT/E-LC) (Clostridium botulinum)
property.measured: inhibition at 100 µg/mL
observed.value: 17.2

compound: O=C(CSc1ncccc1C(=O)[O-])Nc1cccc(Cl)c1.[K+] [Example 20, potassium]
target.system: type E botulinum toxin light chain (BoNT/E-LC) (Clostridium botulinum)
property.measured: inhibition at 100 µg/mL
observed.value: 4.2

compound: O=C(CSc1ncccc1C(=O)O)Nc1ccccc1 [Example 17, 2-(anilino-2-acetylthio)nicotinic Acid]
target.system: type E botulinum toxin light chain (BoNT/E-LC) (Clostridium botulinum)
property.measured: inhibition at 100 µg/mL
observed.value: 18

compound: COc1ccc(Cl)cc1NC(=O)CSc1ncccc1C(=O)O [Example 2]
target.system: type E botulinum toxin light chain (BoNT/E-LC) (Clostridium botulinum)
property.measured: inhibition at 100 µg/mL
observed.value: 11.6

compound: O=C(CSc1ncccc1C(=O)O)Nc1cc(F)ccc1F [Example 22, potassium]
target.system: type E botulinum toxin light chain (BoNT/E-LC) (Clostridium botulinum)
property.measured: inhibition at 100 µg/mL
observed.value: 2.1

compound: O=C(CSc1ncccc1C(=O)O)Nc1ccc(F)cc1 [Example 19, potassium]
target.system: type E botulinum toxin light chain (BoNT/E-LC) (Clostridium botulinum)
property.measured: inhibition at 100 µg/mL
observed.value: 6.8
